- subject of test: human TAS2R1 (Homo sapiens, UniProt Q9NYW7)
- Construct: expressed in transfected cells; host or cells: HEK293T-Gα16gust44
- Sequence (Q9NYW7 1-299): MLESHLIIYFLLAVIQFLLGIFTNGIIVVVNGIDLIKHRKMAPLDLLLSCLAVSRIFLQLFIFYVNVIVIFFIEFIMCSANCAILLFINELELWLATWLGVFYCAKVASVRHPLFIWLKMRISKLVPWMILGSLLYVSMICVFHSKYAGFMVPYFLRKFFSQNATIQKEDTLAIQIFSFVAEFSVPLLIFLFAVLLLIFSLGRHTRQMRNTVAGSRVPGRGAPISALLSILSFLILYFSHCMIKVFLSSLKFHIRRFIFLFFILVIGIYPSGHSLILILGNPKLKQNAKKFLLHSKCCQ
- method notes: Calcium imaging assay (FLIPR), HEK293T-Gα16gust44 cells transfected with human TAS2R1
- Format: cell-based
- condition: Time 14 s
Record form. Attribute: RLU. Fill in for each entry.
# value in RLU; strip the unit string

**Q:** Which RLU value belongs to C[C@H](CCC(=O)O)[C@H]1CC[C@H]2[C@@H]3CC[C@@H]4C[C@H](O)CC[C@]4(C)[C@H]3C[C@H](O)[C@]12C [Deoxycholic Acid, deoxycholic acid] ?
**A:** 0.09676

**Q:** Do the same for C[C@H](CCC(=O)NCC(=O)O)[C@H]1CC[C@H]2[C@@H]3[C@H](O)C[C@@H]4C[C@H](O)CC[C@]4(C)[C@H]3C[C@H](O)[C@]12C [Glycocholic Acid, glycocholic acid] please
**A:** -6.3

**Q:** What would you report for C[C@H](CCC(=O)NCCS(=O)(=O)O)[C@H]1CC[C@H]2[C@@H]3[C@H](O)C[C@@H]4C[C@H](O)CC[C@]4(C)[C@H]3C[C@H](O)[C@]12C [Taurocholic Acid, taurocholic acid] ?
**A:** 10.0652

**Q:** Same read-out for C[C@H](CCC(=O)NCCS(=O)(=O)O)[C@H]1CC[C@H]2[C@@H]3CC[C@@H]4C[C@H](O)CC[C@]4(C)[C@H]3CC[C@]12C [Taurolithocholic Acid, taurolithocholic acid] ?
**A:** 13.1492

###

- subject of test: human TAS2R14 (Homo sapiens)
- Construct: expressed in transfected cells; host or cells: HEK293T-Gα16gust44
- Sequence (Q9NYV8 whole entry): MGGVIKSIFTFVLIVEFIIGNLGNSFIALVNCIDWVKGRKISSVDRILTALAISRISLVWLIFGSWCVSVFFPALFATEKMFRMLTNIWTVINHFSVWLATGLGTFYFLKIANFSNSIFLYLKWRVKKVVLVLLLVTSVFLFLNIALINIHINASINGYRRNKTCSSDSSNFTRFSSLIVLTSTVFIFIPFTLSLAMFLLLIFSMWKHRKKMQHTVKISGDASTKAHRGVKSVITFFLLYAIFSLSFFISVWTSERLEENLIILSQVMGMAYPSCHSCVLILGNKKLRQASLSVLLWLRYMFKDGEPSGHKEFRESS
- method notes: Calcium imaging assay (FLIPR), HEK293T-Gα16gust44 cells transfected with human TAS2R14
- Type: cell-based
- condition: TAS2R14 trace; Time (s) 52.797 (Chenodeoxycholic Acid 52.781)
- Description: This set of bile acids was chosen because of their commercial availability in high purities, their diversity within the class of bile acids and their previous detection and quantitation in human blood. Stock solutions were prepared in DMSO. […] Measured data were negative control corrected by subtracting the signal of the mock-transfected cells and exported to Microsoft Excel using the FLIPR software ScreenWorks 4.2. […]
measured endpoint: RLU

**Q:** Would you mind telling me what RLU value was observed for `C[C@H](CCC(=O)O)[C@H]1CC[C@H]2[C@@H]3[C@H](O)C[C@@H]4C[C@H](O)CC[C@]4(C)[C@H]3C[C@H](O)[C@]12C` ?
**A:** 573.985 RLU

**Q:** Proceed to `C[C@H](CCC(=O)NCC(=O)O)[C@H]1CC[C@H]2[C@@H]3[C@H](O)C[C@@H]4C[C@H](O)CC[C@]4(C)[C@H]3C[C@H](O)[C@]12C`
**A:** 365.455 RLU

**Q:** And for `C[C@H](CCC(=O)O)[C@H]1CC[C@H]2[C@@H]3[C@H](O)C[C@@H]4C[C@H](O)CC[C@]4(C)[C@H]3CC[C@]12C` ?
**A:** 480.824 RLU

**Q:** // repeat for `C[C@H](CCC(=O)NCCS(=O)(=O)O)[C@H]1CC[C@H]2[C@@H]3[C@H](O)C[C@@H]4C[C@H](O)CC[C@]4(C)[C@H]3C[C@H](O)[C@]12C` and report
**A:** 398.833 RLU

**Q:** Next up: `C[C@H](CCC(=O)NCCS(=O)(=O)O)[C@H]1CC[C@H]2[C@@H]3CC[C@@H]4C[C@H](O)CC[C@]4(C)[C@H]3CC[C@]12C`
**A:** 143.488 RLU

###

What RLU, fluorescence trace was measured for each of the following?
- subject of test: human TAS2R4 (Homo sapiens)
- Construct: expressed in transfected cells; host or cells: HEK293T-Gα16gust44
- Sequence (Q9NYW5 1-299): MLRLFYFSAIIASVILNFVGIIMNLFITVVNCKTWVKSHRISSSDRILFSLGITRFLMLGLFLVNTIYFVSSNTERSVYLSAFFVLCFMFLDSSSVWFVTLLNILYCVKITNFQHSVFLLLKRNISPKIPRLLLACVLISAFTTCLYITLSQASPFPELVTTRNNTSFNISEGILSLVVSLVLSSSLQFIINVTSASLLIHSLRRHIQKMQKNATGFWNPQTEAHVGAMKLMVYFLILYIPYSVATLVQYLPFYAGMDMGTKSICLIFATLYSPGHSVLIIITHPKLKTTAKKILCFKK
- method notes: Calcium imaging assay (FLIPR), HEK293T-Gα16gust44 cells transfected with human TAS2R4; also: test concentration or dose not given here
- Format: cell-based
- condition: Time (s) 58.781 (TCA, TLCA: 58.782)
Answer with a number only, understood to be in RLU.

**Q:** Find RLU, fluorescence trace (human TAS2R4 (Homo sapiens)) for the entry `C[C@H](CCC(=O)O)[C@H]1CC[C@H]2[C@@H]3CC[C@@H]4C[C@H](O)CC[C@]4(C)[C@H]3C[C@H](O)[C@]12C`
**A:** 377.086

**Q:** Now give it for `C[C@H](CCC(=O)NCC(=O)O)[C@H]1CC[C@H]2[C@@H]3[C@H](O)C[C@@H]4C[C@H](O)CC[C@]4(C)[C@H]3C[C@H](O)[C@]12C` too.
**A:** 920.415

**Q:** Please do the same for `C[C@H](CCC(=O)O)[C@H]1CC[C@H]2[C@@H]3[C@H](O)C[C@@H]4C[C@H](O)CC[C@]4(C)[C@H]3C[C@H](O)[C@]12C` as well.
**A:** 665.81

**Q:** Would you kindly repeat that for `C[C@H](CCC(=O)NCCS(=O)(=O)O)[C@H]1CC[C@H]2[C@@H]3CC[C@@H]4C[C@H](O)CC[C@]4(C)[C@H]3CC[C@]12C` ?
**A:** 271.056

**Q:** `C[C@H](CCC(=O)NCCS(=O)(=O)O)[C@H]1CC[C@H]2[C@@H]3[C@H](O)C[C@@H]4C[C@H](O)CC[C@]4(C)[C@H]3C[C@H](O)[C@]12C` , same question.
**A:** 588.475

**Q:** Consider next the compound `C[C@H](CCC(=O)O)[C@H]1CC[C@H]2[C@@H]3[C@@H](O)C[C@@H]4C[C@H](O)CC[C@]4(C)[C@H]3CC[C@]12C` in the same way.
**A:** 418.956

###

- subject of test: human TAS2R1 (Homo sapiens)
- Construct: expressed in transfected cells; host or cells: HEK293T-Gα16gust44
- Sequence (Q9NYW7 1-299): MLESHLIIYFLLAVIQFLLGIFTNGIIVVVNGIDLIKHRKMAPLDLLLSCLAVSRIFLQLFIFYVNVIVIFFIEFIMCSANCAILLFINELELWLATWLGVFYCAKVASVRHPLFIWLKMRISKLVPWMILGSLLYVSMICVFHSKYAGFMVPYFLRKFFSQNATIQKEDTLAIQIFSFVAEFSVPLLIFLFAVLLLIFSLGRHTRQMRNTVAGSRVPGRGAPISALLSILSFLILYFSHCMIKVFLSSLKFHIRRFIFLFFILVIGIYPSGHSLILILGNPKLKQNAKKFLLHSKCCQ
- method notes: Calcium imaging assay (FLIPR), HEK293T-Gα16gust44 cells transfected with human TAS2R1
- Assay type: cell-based
- condition: Time 167.562 s
measured endpoint: RLU
Quote the value and follow it with the unit of measurement.

**Q:** Would you mind telling me what RLU value was observed for `C[C@H](CCC(=O)O)[C@H]1CC[C@H]2[C@@H]3CC[C@@H]4C[C@H](O)CC[C@]4(C)[C@H]3CC[C@]12C` ?
**A:** 602.288 RLU

**Q:** Would you mind doing `C[C@H](CCC(=O)O)[C@H]1CC[C@H]2[C@@H]3[C@@H](O)C[C@@H]4C[C@H](O)CC[C@]4(C)[C@H]3CC[C@]12C` as well?
**A:** 116.188 RLU

**Q:** Same question for `C[C@H](CCC(=O)O)[C@H]1CC[C@H]2[C@@H]3[C@H](O)C[C@@H]4C[C@H](O)CC[C@]4(C)[C@H]3CC[C@]12C` please.
**A:** 423.067 RLU

**Q:** Next up: `C[C@H](CCC(=O)O)[C@H]1CC[C@H]2[C@@H]3[C@H](O)C[C@@H]4C[C@H](O)CC[C@]4(C)[C@H]3C[C@H](O)[C@]12C`
**A:** 217.461 RLU
